Tested on: HL60 human leukaemia cell lines
Experiment: Antiproliferative activity by MTS assay (CellTiter 96 Aqueous One Solution)
Type: cell-based
Conditions: HL-60, HL60 cells, 72 hr treatment, triplicate
Structures can show the parent of a compound that is named as a salt.
measurement kind: IC50
Quick note: number first, unit second.

Can you share its IC50? I mean this compound: COc1cccc2c1C(=O)c1c(O)c3c(c(O)c1C2=O)C[C@@](O)(C(=O)CO)C[C@@H]3O[C@H]1C[C@H](N)[C@H](O)[C@H](C)O1 [Doxorubicin, doxorubicin hydrochloride]
125 nM
